- Tested on: Escherichia coli IAI1
- METHOD: fold change of Cadaverine concentration vs plate DMSO controls (fold change (ratio)); higher = more amine produced, active = hit call of the paper (significant change in both replicates, either direction)
- CONDITIONS USED: incubation time: 27 h, anaerobic, 37 °C
Structures can show the parent of a compound that is named as a salt.
Mark criterion not met for fold change of Cadaverine concentration values under 1, and criterion met for everything at or above.

MOLECULE: CCN1CCN(C(=O)N[C@@H](C(=O)N[C@@H]2C(=O)N3C(C(=O)O)=C(CSc4nnnn4C)CS[C@H]23)c2ccc(O)cc2)C(=O)C1=O [Cefoperazone dihydrate] (20 µM)
CLASS: criterion met
//
MOLECULE: Nc1ncnc2c1ncn2[C@@H]1O[C@H](COP(=O)(O)O)[C@@H](O)[C@H]1O [5'-Adenylic acid] (50 µM)
CLASS: criterion not met
//
MOLECULE: Cc1cccc(C)c1OCC(C)N (stereo not drawn) [Mexiletine hydrochloride] (20 µM)
CLASS: criterion met
//
MOLECULE: CN1CCN(c2c(F)cc3c(=O)c(C(=O)O)cn(CCF)c3c2F)CC1 [Fleroxacin] (20 µM)
CLASS: criterion not met

###

Known fold change of Cadaverine concentration of a selection of compounds
- Test system: Escherichia coli IAI1
- METHOD: fold change of Cadaverine concentration vs plate DMSO controls (fold change (ratio)); higher = more amine produced, active = hit call of the paper (significant change in both replicates, either direction)
- CONDITIONS USED: incubation time: 27 h, anaerobic, 37 °C
Counter-ions that a name gives are not always drawn.

COMPOUND: CCN(CC)C(=O)c1ccc(O)c(OC)c1 [Ethamivan] (20 µM)
fold change of Cadaverine concentration: 1.01
--
COMPOUND: C[C@]12CCC(=O)C=C1C=C[C@@H]1[C@@H]2CC[C@@]2(C)[C@H]1CC[C@@]21CCC(=O)O1 [Canrenone] (20 µM)
fold change of Cadaverine concentration: 0.878
--
COMPOUND: Nc1ccc(S(=O)(=O)c2ccc(N)cc2)cc1 [Dapsone] (20 µM)
fold change of Cadaverine concentration: 1.02
--
COMPOUND: Cc1scc2c1N(C(=O)CN1CCN(C)CC1)c1ccccc1NC2=O [Telenzepine dihydrochloride] (20 µM)
fold change of Cadaverine concentration: 1
--
COMPOUND: Cc1ncc([N+](=O)[O-])n1CC(C)O (configuration not stated) [Secnidazole] (20 µM)
fold change of Cadaverine concentration: 0.987
--
COMPOUND: O=C(Oc1ccccc1)c1ccccc1O [Phenyl salicylate] (20 µM)
fold change of Cadaverine concentration: 0.916
--
COMPOUND: Cn1nnc2c(C(N)=O)ncn2c1=O [Temozolomide] (20 µM)
fold change of Cadaverine concentration: 1.02
--
COMPOUND: OCCOCCN1CCN(C2=Nc3ccccc3Sc3ccccc32)CC1 [Quetiapine hemifumarate] (20 µM)
fold change of Cadaverine concentration: 0.892
--
COMPOUND: N=C(N)NC(=O)Cc1c(Cl)cccc1Cl [Guanfacine hydrochloride] (20 µM)
fold change of Cadaverine concentration: 1.01
--
COMPOUND: CC(=O)CC(c1ccccc1)c1c(O)c2ccccc2oc1=O (configuration not stated) [Warfarin] (20 µM)
fold change of Cadaverine concentration: 0.958
--
COMPOUND: N[C@@H](Cc1c[nH]c2ccccc12)C(=O)O [L-Tryptophan] (20 µM)
fold change of Cadaverine concentration: 1.03
--
COMPOUND: CC1(C)S[C@@H]2[C@H](NC(=O)[C@H](NC(=O)N3CCNC3=O)c3ccccc3)C(=O)N2[C@H]1C(=O)O [Azlocillin sodium salt] (20 µM)
fold change of Cadaverine concentration: 1.87
--
COMPOUND: Cc1ccc(/C(=C\CN2CCCC2)c2ccccn2)cc1 [Triprolidine hydrochloride] (20 µM)
fold change of Cadaverine concentration: 0.797
--
COMPOUND: C[C@@H](NCCCc1cccc(C(F)(F)F)c1)c1cccc2ccccc12 [Cinacalcet hydrochloride] (20 µM)
fold change of Cadaverine concentration: 0.693
--
COMPOUND: C#C[C@]1(O)CC[C@H]2[C@@H]3CCC4=C(CCC(=O)C4)[C@H]3CC[C@@]21C [Norethynodrel] (20 µM)
fold change of Cadaverine concentration: 0.979
--
COMPOUND: CC(C)(C)NC[C@H](O)COc1nsnc1N1CCOCC1 [Timolol maleate salt] (20 µM)
fold change of Cadaverine concentration: 1.02
--
COMPOUND: CCCCc1oc2ccccc2c1C(=O)c1cc(I)c(OCCN(CC)CC)c(I)c1 [Amiodarone hydrochloride] (20 µM)
fold change of Cadaverine concentration: 1.04
